target: CIB1 and αIIb interaction (CIB1-GST : F-αIIb peptide) (Homo sapiens); construct: made in house; host or cells: BL-21 plus RIL cells (E. coli); test: FP assay, 1536-well qHTS format (primary and confirmatory screen); assay type: binding; conditions: qHTS primary screen of LOPAC/NPACT libraries; read-out: IC50
Sequence (Q99828 whole entry): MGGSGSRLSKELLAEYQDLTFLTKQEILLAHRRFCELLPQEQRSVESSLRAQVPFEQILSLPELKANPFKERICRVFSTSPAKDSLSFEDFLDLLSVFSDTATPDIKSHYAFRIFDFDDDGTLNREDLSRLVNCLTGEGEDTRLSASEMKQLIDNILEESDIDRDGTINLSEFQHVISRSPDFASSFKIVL
Entries and their IC50
State just the number; it will be interpreted in µM.

{"Compound": "CS(=O)(=O)O.CSc1ccc2c(c1)C(N1CCN(C)CC1)Cc1ccccc1S2 (stereo not shown) [NCGC00024665-06]", "IC50 [µM]": 56.2}
{"Compound": "O=c1c(O)c(-c2ccc(O)cc2O)oc2cc(O)cc(O)c12 [NCGC00261461-01]", "IC50 [µM]": 4}
{"Compound": "Nc1nccn2c(C3CCC(C(=O)O)CC3)nc(-c3cc4cccc(Cl)c4[nH]3)c12 (stereo not shown) [NCGC00390408-01]", "IC50 [µM]": 50.1}
{"Compound": "C=C1C(=O)O[C@@H]2[C@H]3C(C)=CC(=O)C3=C(C)CC[C@@H]12 [NCGC00485131-01]", "IC50 [µM]": 10}
{"Compound": "C/C=C/C=C/c1cc2c(C=O)c(O)c(CC=C(C)C)cc2o1 [NCGC00386103-01]", "IC50 [µM]": 63.1}
{"Compound": "O=C(/C=C/c1ccccc1)OC[C@H]1O[C@@H](OC(=O)c2cc(O)c(O)c(O)c2)[C@H](O)[C@@H](O)[C@@H]1O [NCGC00380690-01]", "IC50 [µM]": 8.9}
{"Compound": "Cc1cc(N2CCOCC2)cc2[nH]c(-c3c(NC[C@@H](O)c4cccc(Cl)c4)cc[nH]c3=O)nc12 [NCGC00346460-05]", "IC50 [µM]": 17.8}
{"Compound": "Cc1sc2c(c1C)C(c1ccc(Cl)cc1)=N[C@@H](CC(=O)Nc1ccc(OCCOCCOCCOCCNc3cccc4c3C(=O)N(C3CCC(=O)NC3=O)C4=O)cc1)c1nnc(C)n1-2 (stereo partly shown) [NCGC00483927-01]", "IC50 [µM]": 22.4}
{"Compound": "Cc1ccc(-c2c(C(=O)CCl)n(CCCO)c3ncnc(N)c23)cc1 [NCGC00485901-01]", "IC50 [µM]": 3.5}
{"Compound": "COc1ccnc(C[S+]([O-])c2nc3cc(OC(F)F)ccc3[nH]2)c1OC (stereo not shown) [NCGC00388526-02]", "IC50 [µM]": 56.2}

Hello, I am looking for reported IC50 with CIB1 and αIIb interaction (CIB1-GST : F-αIIb peptide) (Homo sapiens) for CN1CCC2(CCN3CCc4c(oc5ccccc45)C3C2)N(C)C1=O.Cl (stereo not shown) [NCGC00015699-03] . Could you help?
17.8

# iterate: COc1c(C)c(OCC(O)C(C)(C)O)cc2c1CNC2=O (stereo not shown) [NCGC00385487-01]
56.2

Would you mind doing O=C1NC(=O)/C(=C/c2ccc3nccnc3c2)S1 [NCGC00261632-01] as well?
7.9

Please do the same for Cc1cc(O)cc(Oc2cc(C)c(C(=O)O)c(O)c2)c1 [NCGC00380115-01] as well.
56.2

Another compound to look at: C=C1C2(C)CC3C(C)(O)C4=CC(=O)OC(C)(C)C4=CCC3(C)C13C(=O)OC(C)C3(O)C2=O (stereo not shown) [NCGC00380442-01]
35.5

Quick one: CN(NC(=O)CC(=O)NN(C)C(=S)c1ccccc1)C(=S)c1ccccc1 [NCGC00183656-09]
35.5
